The reported numbers originate from patent US20250115572A1.

Molecular target: Recombinant human factor B (Homo sapiens (Human))
Assay: Human Complement Factor B TR-FRET Assay
Assay type: binding
Settings: displacement of labeled factor B ligand; * = assay behavior at and above the stated concentration prevented IC50 determination; read-out: hFactor-B TR-FRET Qualified IC50
endpointName: IC50 (nM)
The reply should contain only the number, in nM.

| molecule | experimentalTarget | endpointName | observed |
| --- | --- | --- | --- |
| COc1cc(C)c2[nH]ccc2c1CN1CCC2(C[C@H]1c1ccc(C(=O)O)nc1)CC(F)(F)C2 | Recombinant human factor B (Homo sapiens (Human)) | IC50 | 2.1 |

Let us examine a further case.
Input COc1cc(C)c2[nH]ccc2c1CN1CCC2(C[C@H]1c1ccc(C(=O)O)cc1)CC(C)(F)C2 (single isomer, unassigned) [Ex-3] . Output IC50: 40.7

----------
Target: Recombinant human factor B (Homo sapiens (Human), UniProt P00751)
Sequence (P00751 26-764): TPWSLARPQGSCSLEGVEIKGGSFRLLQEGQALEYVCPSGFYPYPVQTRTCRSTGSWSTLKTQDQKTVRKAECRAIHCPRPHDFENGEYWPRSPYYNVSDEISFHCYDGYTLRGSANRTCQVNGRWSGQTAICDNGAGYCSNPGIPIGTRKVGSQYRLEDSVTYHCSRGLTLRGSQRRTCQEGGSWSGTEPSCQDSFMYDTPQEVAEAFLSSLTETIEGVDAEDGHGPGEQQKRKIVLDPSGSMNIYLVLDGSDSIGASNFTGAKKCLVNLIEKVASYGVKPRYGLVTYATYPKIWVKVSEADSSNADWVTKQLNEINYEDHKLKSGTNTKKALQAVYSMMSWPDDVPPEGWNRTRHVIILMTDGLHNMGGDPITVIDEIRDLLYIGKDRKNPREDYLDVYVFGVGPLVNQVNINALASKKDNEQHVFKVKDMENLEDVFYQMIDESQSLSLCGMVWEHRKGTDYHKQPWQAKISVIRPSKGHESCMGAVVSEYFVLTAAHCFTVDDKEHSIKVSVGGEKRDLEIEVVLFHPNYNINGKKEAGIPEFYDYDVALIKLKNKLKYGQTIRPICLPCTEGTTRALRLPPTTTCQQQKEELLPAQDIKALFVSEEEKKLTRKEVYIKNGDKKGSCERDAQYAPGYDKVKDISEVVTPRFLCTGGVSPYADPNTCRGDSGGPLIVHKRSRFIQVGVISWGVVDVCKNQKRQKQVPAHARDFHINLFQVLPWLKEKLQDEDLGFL
Test: Human Complement Factor B TR-FRET Assay
Format: binding
Settings: displacement of labeled factor B ligand; * = assay behavior at and above the stated concentration prevented IC50 determination; read-out: hFactor-B TR-FRET Qualified IC50
Hi! Could you tag entries with IC50 below 30 nM as 1.0, and those at or above as 0.0? Much appreciated.

Say whether its IC50 is strictly beneath 30 nM. Entry: COc1cc(C)c2[nH]ccc2c1CN1CCC2(C[C@@H]1c1ccccc1)CC(F)(F)C2 (single isomer, unassigned) [Ex-38]
0.0

Say whether its IC50 is strictly beneath 30 nM. Entry: COc1cc(C)c2[nH]ccc2c1CN1CCC2(C[C@H]1c1ccc(C(=O)O)cc1)CC(C)(O)C2 (single isomer, unassigned) [Ex-15]
0.0

Say whether its IC50 is strictly beneath 30 nM. Entry: COc1cc(C)c2[nH]ccc2c1CN1CCC2(C[C@@H]1c1ccc(-c3nnn[nH]3)nc1)CC(F)(F)C2 (single isomer, unassigned) [Ex-60]
0.0

Say whether its IC50 is strictly beneath 30 nM. Entry: Cc1cc(C2CC2)c(CN2CCC3(C[C@@H]2c2ccc(-c4nnn[nH]4)cc2)CC(F)(F)C3)c2cc[nH]c12 (single isomer, unassigned) [Ex-34]
0.0

Say whether its IC50 is strictly beneath 30 nM. Entry: COc1cc(C)c2[nH]ccc2c1CN1CCC2(CC1c1ccc(C(F)F)cc1)CC(F)(F)C2 (racemic) [Ex-52]
0.0

----------
Target: Recombinant human factor B (Homo sapiens (Human), UniProt P00751)
Experiment: Human Complement Factor B TR-FRET Assay
Format: binding
Details: displacement of labeled factor B ligand; * = assay behavior at and above the stated concentration prevented IC50 determination; read-out: hFactor-B TR-FRET Qualified IC50
Listing of recorded IC50 by entry.
The reply should contain only the number, in nM.

| molecule | IC50 [nM] |
| --- | --- |
| COc1cc(C)c2[nH]ccc2c1CN1CCC2(C[C@@H]1c1ccc(C(=O)O)cc1)CC(C)(F)C2 (single isomer, unassigned) [Ex-2] | 6810 |
| COc1cc(C)c2[nH]ccc2c1CN1CCC2(CC(F)C2)C[C@@H]1c1ccc(C(=O)O)cc1 (single isomer, unassigned) [Ex-10] | 242 |

Input COc1cc(C)c2[nH]ccc2c1CN1CCC2(C[C@@H]1c1ccc(C(=O)O)nc1)CC(F)(F)C2 . Output IC50: 235

Input Cc1cc(C2CC2)c(CN2CCC3(C[C@H]2c2ccc(C(=O)O)cc2)CC(F)(F)C3)c2cc[nH]c12 . Output IC50: 1.4

----------
Listing of recorded pIC50 by entry.
Molecular target: Recombinant human factor B (Homo sapiens (Human))
Test: Human Complement Factor B TR-FRET Assay
Type: binding
Details: displacement of labeled factor B ligand; * = assay behavior at and above the stated concentration prevented IC50 determination; read-out: hFactor-B TR-FRET Qualified IC50
Experimental: The time-gated decrease in fluorescence intensity related to the competition between labeled and unlabeled factor B ligands was recorded at both 620 nm and 665 nm, 70 μs after excitation at 337 nm using a microplate spectrofluorimeter.
// scale note: pIC50 = -log10(conc_M); give the bare number

Consider the following illustrative entries.
| molecule | pIC50 |
| --- | --- |
| Cc1cc(C2CC2)c(CN2CCC3(C[C@H]2c2ccc(C(=O)O)nc2)CC(F)(F)C3)c2cc[nH]c12 | 8.68 |
| Cc1ccc(CN2CCC3(C[C@H]2c2ccc(C(=O)O)cc2)CC(F)(F)C3)c2cc[nH]c12 | 8.11 |
| COc1cc(C)c2[nH]ccc2c1CN1CCC2(CCC(F)(F)C2)C[C@@H]1c1ccc(C(=O)O)cc1 (single isomer, unassigned) [Ex-19] | 5.84 |
| Cc1cc(C2CC2)c(CN2CCC3(C[C@H]2c2ccc(C4(O)COC4)cc2)CC(F)(F)C3)c2cc[nH]c12 (single isomer, unassigned) | 8.40 |
| Cc1cc(C2CC2(F)F)c(CN2CCC3(C[C@H]2c2ccc(C(=O)O)cc2)CC(F)(F)C3)c2cc[nH]c12 (single isomer, unassigned) [Ex-24] | 7.50 |

Input COCCn1cc([C@H]2CC3(CCN2Cc2c(OC)cc(C)c4[nH]ccc24)CC(F)(F)C3)cn1 (single isomer, unassigned) . Output pIC50: 5.55

Input COc1cc(C)c2[nH]ccc2c1CN1CCC2(C[C@@H]1c1ccc(-c3nnn[nH]3)cc1)CC(F)(F)C2 (single isomer, unassigned) . Output pIC50: 7.23

----------
Listing of recorded pIC50 by entry.
Target: Recombinant human factor B (Homo sapiens (Human))
Test: Human Complement Factor B TR-FRET Assay
Type: binding
Details: displacement of labeled factor B ligand; * = assay behavior at and above the stated concentration prevented IC50 determination; read-out: hFactor-B TR-FRET Qualified IC50
// scale note: pIC50 = -log10(conc_M); give the bare number

The value of pIC50 recorded for Cc1cc(C2CC2)c(CN2CCC3(CC2c2ccc(-c4nnn[nH]4)cc2)CC(F)(F)C3)c2cc[nH]c12 (racemic) when tested on Recombinant human factor B (Homo sapiens (Human)) reads 8.30

The value of pIC50 recorded for COc1cc(C)c2[nH]ccc2c1CN1CCC2(CC1c1ccc(-c3nnn[nH]3)nc1)CC(F)(F)C2 (racemic) when tested on Recombinant human factor B (Homo sapiens (Human)) reads 8.42

The value of pIC50 recorded for COc1cc(C)c2[nH]ccc2c1CN1CCC2(C[C@H]1c1ccc(C(=O)O)cc1)CC(C)(F)C2 (single isomer, unassigned) [Ex-1] when tested on Recombinant human factor B (Homo sapiens (Human)) reads 9.30

The value of pIC50 recorded for COc1cc(C)c2[nH]ccc2c1CN1CCC2(CC(F)C2)C[C@H]1c1ccc(C(=O)O)cc1 (single isomer, unassigned) [Ex-9] when tested on Recombinant human factor B (Homo sapiens (Human)) reads 8.68

The value of pIC50 recorded for Cc1cc(C2CC2)c(CN2CCC3(CC2c2ccc(C(C)(C)O)cc2)CC(F)(F)C3)c2cc[nH]c12 (racemic) when tested on Recombinant human factor B (Homo sapiens (Human)) reads 8.05

The value of pIC50 recorded for COc1cc(C)c2[nH]ccc2c1CN1CCC2(CC(F)C2)C[C@H]1c1ccc(C(=O)O)cc1 (single isomer, unassigned) [Ex-7] when tested on Recombinant human factor B (Homo sapiens (Human)) reads 9.10

The value of pIC50 recorded for COc1cc(C)c2[nH]ccc2c1CN1CCC2(C[C@@H]1c1cnn(C)c1)CC(F)(F)C2 (single isomer, unassigned) when tested on Recombinant human factor B (Homo sapiens (Human)) reads 6.06

The value of pIC50 recorded for COc1cc(C)c2[nH]ccc2c1CN1CCC2(CCC(F)(F)C2)C[C@H]1c1ccc(C(=O)O)cc1 (single isomer, unassigned) [Ex-18] when tested on Recombinant human factor B (Homo sapiens (Human)) reads 8.47

The value of pIC50 recorded for COc1cc(C)c2[nH]ccc2c1CN1CCC2(C[C@@H]1c1ccc(C(=O)O)cc1)CC(F)(F)C2 when tested on Recombinant human factor B (Homo sapiens (Human)) reads 6.15

----------
Listing of recorded IC50 by entry.
Target: Recombinant human factor B (Homo sapiens (Human), UniProt P00751)
Assay: Human Complement Factor B TR-FRET Assay
Format: binding
Settings: displacement of labeled factor B ligand; * = assay behavior at and above the stated concentration prevented IC50 determination; read-out: hFactor-B TR-FRET Qualified IC50

Input Cc1cc(C2CC2)c(CN2CCC3(C[C@@H]2c2ccc(-c4ccn[nH]4)cc2)CC(F)(F)C3)c2cc[nH]c12 (single isomer, unassigned) . Output IC50: > 100 nM

Input Cc1cc(C2CC2)c(CN2CCC3(C[C@@H]2c2ccc(C4(O)COC4)cc2)CC(F)(F)C3)c2cc[nH]c12 (single isomer, unassigned) . Output IC50: > 400 nM

Input Cc1cc(C2CC2)c(CN2CCC3(C[C@@H]2c2ccc(C(C)(C)O)cc2)CC(F)(F)C3)c2cc[nH]c12 (single isomer, unassigned) . Output IC50: > 400 nM
